biological target: Casein kinase II (Homo sapiens) (UniProt P67870+P68400+P19784); assay: Percentage CK2 activity remaining in the presence of 0.1uM inhibitor; assay type: protein-complex assay
endpoint label: Activity (%)
Write the value in % as a bare number.

# annotated cases, reported Activity shown
[[record]]
compound = "CC(C)[C@H](CO)Nc1nc(Nc2cccc(Cl)c2)c2ncn(C(C)C)c2n1 [PURVALANOLA]"
endpoint_label = "Activity"
unit_tag = "%"
experimental_value = 99

[[record]]
compound = "Cn1cc(C2=C(c3cn(CCCSC(=N)N)c4ccccc34)C(=O)NC2=O)c2ccccc21"
endpoint_label = "Activity"
unit_tag = "%"
experimental_value = 99

[[record]]
compound = "CC(C)CCN1c2nc(Nc3cc(F)c(O)c(F)c3)ncc2N(C)C(=O)C1C (configuration not stated)"
endpoint_label = "Activity"
unit_tag = "%"
experimental_value = 97

[[record]]
compound = "Cc1n[nH]c2ccc(-c3cncc(OC[C@@H](N)Cc4c[nH]c5ccccc45)c3)cc12"
endpoint_label = "Activity"
unit_tag = "%"
experimental_value = 90

[[record]]
compound = "O=C(NCCCNc1nc(Nc2cccc(NC(=O)N3CCCC3)c2)ncc1I)c1cccs1"
endpoint_label = "Activity"
unit_tag = "%"
experimental_value = 93

[[record]]
compound = "Cn1c2ccccc2c2c3c(c4c5ccccc5n(CCC#N)c4c21)CNC3=O"
endpoint_label = "Activity"
unit_tag = "%"
experimental_value = 88


Switching to the query record.
Q) May I ask what Activity has been recorded for CN(C)C[C@@H]1CCn2cc(c3ccccc32)C2=C(C(=O)NC2=O)c2cn(c3ccccc23)CCO1 ?
A) 89

----------
target: UniProt O15530; test: Percentage PDK1 activity remaining in the presence of 0.1uM inhibitor
Sequence (O15530 whole entry): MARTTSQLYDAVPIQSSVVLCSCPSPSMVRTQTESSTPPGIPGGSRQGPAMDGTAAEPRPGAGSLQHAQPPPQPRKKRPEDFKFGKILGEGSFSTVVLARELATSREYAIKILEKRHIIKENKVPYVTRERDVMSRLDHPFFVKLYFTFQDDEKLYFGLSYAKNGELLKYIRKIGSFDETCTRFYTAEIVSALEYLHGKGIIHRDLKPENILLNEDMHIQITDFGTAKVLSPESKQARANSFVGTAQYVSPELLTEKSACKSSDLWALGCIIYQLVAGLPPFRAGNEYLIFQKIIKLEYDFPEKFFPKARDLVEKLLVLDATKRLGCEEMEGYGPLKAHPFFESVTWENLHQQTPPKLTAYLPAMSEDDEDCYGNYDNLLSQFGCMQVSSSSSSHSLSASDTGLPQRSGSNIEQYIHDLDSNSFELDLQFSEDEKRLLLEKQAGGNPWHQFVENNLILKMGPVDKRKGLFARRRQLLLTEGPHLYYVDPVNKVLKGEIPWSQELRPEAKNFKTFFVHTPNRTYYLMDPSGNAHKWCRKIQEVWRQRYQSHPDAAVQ
endpoint label: Activity (%)
Numbers only; they are read as %.

[[record]]
molecule = "Cc1n[nH]c2ccc(-c3cncc(OC[C@@H](N)Cc4c[nH]c5ccccc45)c3)cc12"
experimental_value = 79

[[record]]
molecule = "CC(C)[C@H](CO)Nc1nc(Nc2cccc(Cl)c2)c2ncn(C(C)C)c2n1 [PURVALANOLA]"
experimental_value = 79

[[record]]
molecule = "Cn1cc(C2=C(c3cn(CCCSC(=N)N)c4ccccc34)C(=O)NC2=O)c2ccccc21"
experimental_value = 62


Now turn to the next molecule.
Q) Form field: reported Activity of CC(C)CCN1c2nc(Nc3cc(F)c(O)c(F)c3)ncc2N(C)C(=O)C1C (centres undefined)
A) 94

----------
// values below are reported Activity
target: Serine/threonine-protein kinase BRSK2 (Homo sapiens) (UniProt Q8IWQ3); experiment: Percentage BRSK2 activity remaining in the presence of 0.1uM inhibitor
Sequence (Q8IWQ3 whole entry): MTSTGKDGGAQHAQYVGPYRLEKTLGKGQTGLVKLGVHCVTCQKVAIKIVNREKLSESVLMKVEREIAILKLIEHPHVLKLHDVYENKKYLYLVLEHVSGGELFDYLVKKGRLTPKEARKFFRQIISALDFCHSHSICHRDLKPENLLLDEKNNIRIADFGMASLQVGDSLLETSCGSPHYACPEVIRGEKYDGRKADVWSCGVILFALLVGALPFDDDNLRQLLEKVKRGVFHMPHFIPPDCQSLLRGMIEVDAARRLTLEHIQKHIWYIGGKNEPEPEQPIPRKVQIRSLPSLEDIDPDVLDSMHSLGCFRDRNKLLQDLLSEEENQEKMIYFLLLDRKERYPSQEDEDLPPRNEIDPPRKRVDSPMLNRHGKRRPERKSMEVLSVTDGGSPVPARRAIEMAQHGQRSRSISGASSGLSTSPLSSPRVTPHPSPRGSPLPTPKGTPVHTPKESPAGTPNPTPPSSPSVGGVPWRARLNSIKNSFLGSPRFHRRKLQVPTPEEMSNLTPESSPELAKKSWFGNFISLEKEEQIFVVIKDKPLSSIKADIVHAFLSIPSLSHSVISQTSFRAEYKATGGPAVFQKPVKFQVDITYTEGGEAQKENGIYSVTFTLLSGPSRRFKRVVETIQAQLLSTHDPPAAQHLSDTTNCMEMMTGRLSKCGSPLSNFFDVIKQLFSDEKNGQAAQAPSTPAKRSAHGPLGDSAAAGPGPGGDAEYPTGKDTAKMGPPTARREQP
Lab book: enter the figure in %, no units written.

[[record]]
compound = "CC(C)[C@H](CO)Nc1nc(Nc2cccc(Cl)c2)c2ncn(C(C)C)c2n1"
experimental_value = 76

[[record]]
compound = "CC(C)CCN1c2nc(Nc3cc(F)c(O)c(F)c3)ncc2N(C)C(=O)C1C (centres undefined)"
experimental_value = 78

[[record]]
compound = "Cn1cc(C2=C(c3cn(CCCSC(=N)N)c4ccccc34)C(=O)NC2=O)c2ccccc21"
experimental_value = 65


Then there is this compound:
Q) Which Activity is reported for this compound? Cc1n[nH]c2ccc(-c3cncc(OC[C@@H](N)Cc4c[nH]c5ccccc45)c3)cc12
A) 79

From: ChEMBL document CHEMBL1150976
